Attribution: paper PMC11184554

# assay_name: Cytotoxicity, CellTiter Glo 2.0
# Assay type: cell-based
# condition_summary: human; panel B; HepG2; 10 µM; 72 h; ± SD; read-out: Cell line viability (%) after treatment with 10 µM compound
# Description: Table S4. Cytotoxicity of gallinamides. Cytotoxicity of gallinamide A and compounds 1, 6, and 9 was tested with four human cell lines and expressed as % viability vs. untreated cells. […] Cytotoxicity was expressed as percent viability compared to untreated control cells; the standard deviation of the mean of quadruplicate readings is shown. […]
Measured viability at 72 h, 10 µM accompanies every entry in the list below.
experimental_readout: viability at 72 h, 10 µM (%)

compound	experimental_readout	recorded_result
CC[C@H](C)[C@@H](C(=O)O[C@@H](CC(C)C)C(=O)N[C@@H](CC(C)C)C(=O)N[C@@H](C)/C=C/C(=O)N1C(=O)C=C(OC)[C@@H]1C)N(C)C [gallinamide A]	viability at 72 h, 10 µM	94
COC1=CC(=O)N(C(=O)/C=C/[C@H](C)NC(=O)[C@H](CC(C)C)NC(=O)[C@H](CC(C)C)OC(=O)[C@H](Cc2ccccc2)N(C)C)[C@H]1Cc1ccccc1	viability at 72 h, 10 µM	13

---

# assay_name: Cytotoxicity, CellTiter Glo 2.0
# Format: cell-based
# condition_summary: human; panel A; NHDF; 1 µM; 72 h; ± SD; read-out: Cell line viability after 72 h (%)
experimental_readout: viability at 72 h, 1 µM

compound	recorded_result
CC[C@H](C)[C@@H](C(=O)O[C@@H](CC(C)C)C(=O)N[C@@H](CC(C)C)C(=O)N[C@@H](C)/C=C/C(=O)N1C(=O)C=C(OC)[C@@H]1C)N(C)C [gallinamide A]	105%
COC1=CC(=O)N(C(=O)/C=C/[C@H](C)NC(=O)[C@H](CC(C)C)NC(=O)[C@H](CC(C)C)OC(=O)[C@H](Cc2ccccc2)N(C)C)[C@H]1Cc1ccccc1	99%

---

# Test system: ex vivo adult mixed sex S. mansoni
# assay_name: Phenotypic screen with ex vivo adult schistosomes
# Format: cell-based
# condition_summary: 2 h, 5 μM; scale 0 to 4

compound	adult severity score
COC1=CC(=O)N(C(=O)/C=C/[C@H](C)NC(=O)[C@H](CC(C)C)NC(=O)[C@H](CC(C)C)OC(=O)[C@H](Cc2ccccc2)N(C)C)[C@H]1Cc1ccccc1 [compound 6]	1
CC[C@H](C)[C@@H](C(=O)O[C@@H](CC(C)C)C(=O)N[C@@H](CC(C)C)C(=O)N[C@@H](C)/C=C/C(=O)N1C(=O)C=C(OC)[C@@H]1C)N(C)C [gallinamide A]	0
CCC(C)C(C(=O)OC(CC(C)C)C(=O)NC(CC(C)C)C(=O)NC(C)C=CC(=O)N1C(=O)C=C(OC)C1Cc1ccccc1)N(C)C (stereo not shown) [compound 9]	1
CCC(C)C(C(=O)OC(CC(C)C)C(=O)NC(CC(C)C)C(=O)NC(C)C=CC(=O)N1C(=O)C=C(OC)C1CC(C)C)N(C)C (stereo not shown) [compound 1]	0

---

# Test system: recombinant SmCB1
# assay_name: Kinetic inhibition assay with recombinant SmCB1 (k2nd)
# Assay type: biochemical, S. mansoni
# condition_summary: second-order rate constant (kinact/Ki); substrate Cbz–Phe–Arg–AMC; pH 5.5, 37 °C; mean ± SE
# Procedure: Gallinamide A and a series of its 18 derivatives were evaluated in vitro as inhibitors of SmCB1 to explore the binding specificities of the subsites in the enzyme’s active site. […] The compounds’ second-order rate constants (k2nd) were determined using a kinetic inhibition assay with recombinant SmCB1 and the substrate, Cbz–Phe–Arg–AMC. Inhibition measurements were performed in duplicate in 96-well microplates (100 μL assay volume) at 37 °C. […] The KM value determined for SmCB1 was 25 μM. […]

compound	study_system	unit_of_measurement	SmCB1 inhibition k2nd
CCC(C)C(C(=O)OC(CC(C)C)C(=O)NC(CC(C)C)C(=O)NC(C=CC(=O)N1C(=O)C=C(OC)C1Cc1ccccc1)Cc1ccccc1)N(C)C (stereo not drawn) [compound 15]	recombinant SmCB1	M^–1·s^–1	41.6
CCC(C)C(C(=O)OC(CC(C)C)C(=O)NC(CC(C)C)C(=O)NC(C)CCC(=O)N1C(=O)C=C(OC)C1C)N(C)C (stereo not drawn) [compound 16]	recombinant SmCB1	M^–1·s^–1	36.9
COC1=CC(=O)N(C(=O)/C=C/[C@H](Cc2ccccc2)NC(=O)[C@H](CC(C)C)NC(=O)[C@H](CC(C)C)OC(=O)[C@H](Cc2ccccc2)N(C)C)[C@@H]1Cc1ccccc1 [compound 13]	recombinant SmCB1	M^–1·s^–1	109

---

# assay_name: Cytotoxicity, CellTiter Glo 2.0
# Assay type: cell-based
# condition_summary: human; panel A; HeLa; 1 µM; 72 h; ± SD; read-out: Cell line viability after 72 h (%)
experimental_readout: viability at 72 h, 1 µM (%)

compound	recorded_result
COC1=CC(=O)N(C(=O)/C=C/[C@H](C)NC(=O)[C@H](CC(C)C)NC(=O)[C@H](CC(C)C)OC(=O)[C@H](Cc2ccccc2)N(C)C)[C@H]1Cc1ccccc1	93
CC[C@H](C)[C@@H](C(=O)O[C@@H](CC(C)C)C(=O)N[C@@H](CC(C)C)C(=O)N[C@@H](C)/C=C/C(=O)N1C(=O)C=C(OC)[C@@H]1C)N(C)C [gallinamide A]	96

---

Attribute: viability at 24 h, 10 µM
# assay_name: Cytotoxicity, CellTiter Glo 2.0
# Type: cell-based
# condition_summary: human; panel B; HL-60; 10 µM; 24 h; ± SD; read-out: Cell line viability (%) after treatment with 10 µM compound

compound	unit_of_measurement	viability at 24 h, 10 µM
CC[C@H](C)[C@@H](C(=O)O[C@@H](CC(C)C)C(=O)N[C@@H](CC(C)C)C(=O)N[C@@H](C)/C=C/C(=O)N1C(=O)C=C(OC)[C@@H]1C)N(C)C [gallinamide A]	%	99
COC1=CC(=O)N(C(=O)/C=C/[C@H](C)NC(=O)[C@H](CC(C)C)NC(=O)[C@H](CC(C)C)OC(=O)[C@H](Cc2ccccc2)N(C)C)[C@H]1Cc1ccccc1	%	31

---

# assay_name: Cytotoxicity, CellTiter Glo 2.0
# Type: cell-based
# condition_summary: human; panel A; HL-60; 1 µM; 72 h; vs untreated cells; ± SD; read-out: Cell line viability after 72 h (%)
Listing: viability at 72 h, 1 µM of selected molecules

molecule	viability at 72 h, 1 µM [%]
COC1=CC(=O)N(C(=O)/C=C/[C@H](C)NC(=O)[C@H](CC(C)C)NC(=O)[C@H](CC(C)C)OC(=O)[C@H](Cc2ccccc2)N(C)C)[C@H]1Cc1ccccc1	100
CC[C@H](C)[C@@H](C(=O)O[C@@H](CC(C)C)C(=O)N[C@@H](CC(C)C)C(=O)N[C@@H](C)/C=C/C(=O)N1C(=O)C=C(OC)[C@@H]1C)N(C)C [gallinamide A]	100

---

# Tested on: ex vivo adult mixed sex S. mansoni
# assay_name: Phenotypic screen with ex vivo adult schistosomes
# Assay type: cell-based
# condition_summary: 2 h, 2 µM
experimental_readout: adult phenotype descriptors

molecule	experimental_readout	recorded_result
CCC(C)C(C(=O)OC(CC(C)C)C(=O)NC(CC(C)C)C(=O)NC(C)C=CC(=O)N1C(=O)C=C(OC)C1Cc1ccccc1)N(C)C (stereo not shown) [compound 9]	adult phenotype descriptors	N
COC1=CC(=O)N(C(=O)/C=C/[C@H](C)NC(=O)[C@H](CC(C)C)NC(=O)[C@H](CC(C)C)OC(=O)[C@H](Cc2ccccc2)N(C)C)[C@H]1Cc1ccccc1 [compound 6]	adult phenotype descriptors	N
CCC(C)C(C(=O)OC(CC(C)C)C(=O)NC(CC(C)C)C(=O)NC(C)C=CC(=O)N1C(=O)C=C(OC)C1CC(C)C)N(C)C (stereo not shown) [compound 1]	adult phenotype descriptors	N
CC[C@H](C)[C@@H](C(=O)O[C@@H](CC(C)C)C(=O)N[C@@H](CC(C)C)C(=O)N[C@@H](C)/C=C/C(=O)N1C(=O)C=C(OC)[C@@H]1C)N(C)C [gallinamide A]	adult phenotype descriptors	N

---

# assay_name: Cytotoxicity, CellTiter Glo 2.0
# Format: cell-based
# condition_summary: human; panel B; HeLa; 10 µM; 72 h; ± SD; read-out: Cell line viability (%) after treatment with 10 µM compound
Each item that follows carries a reported viability at 72 h, 10 µM.
experimental_readout: viability at 72 h, 10 µM (%)

compound	experimental_readout	unit_of_measurement	recorded_result
CC[C@H](C)[C@@H](C(=O)O[C@@H](CC(C)C)C(=O)N[C@@H](CC(C)C)C(=O)N[C@@H](C)/C=C/C(=O)N1C(=O)C=C(OC)[C@@H]1C)N(C)C [gallinamide A]	viability at 72 h, 10 µM	%	88
COC1=CC(=O)N(C(=O)/C=C/[C@H](C)NC(=O)[C@H](CC(C)C)NC(=O)[C@H](CC(C)C)OC(=O)[C@H](Cc2ccccc2)N(C)C)[C@H]1Cc1ccccc1 [compound 6]	viability at 72 h, 10 µM	%	13
